Reported AC50 values are given for each entry in this list.
assayedSystem: Sodium-dependent noradrenaline transporter (Homo sapiens, UniProt P23975); also: assay procedure not described here
Sequence (P23975 whole entry): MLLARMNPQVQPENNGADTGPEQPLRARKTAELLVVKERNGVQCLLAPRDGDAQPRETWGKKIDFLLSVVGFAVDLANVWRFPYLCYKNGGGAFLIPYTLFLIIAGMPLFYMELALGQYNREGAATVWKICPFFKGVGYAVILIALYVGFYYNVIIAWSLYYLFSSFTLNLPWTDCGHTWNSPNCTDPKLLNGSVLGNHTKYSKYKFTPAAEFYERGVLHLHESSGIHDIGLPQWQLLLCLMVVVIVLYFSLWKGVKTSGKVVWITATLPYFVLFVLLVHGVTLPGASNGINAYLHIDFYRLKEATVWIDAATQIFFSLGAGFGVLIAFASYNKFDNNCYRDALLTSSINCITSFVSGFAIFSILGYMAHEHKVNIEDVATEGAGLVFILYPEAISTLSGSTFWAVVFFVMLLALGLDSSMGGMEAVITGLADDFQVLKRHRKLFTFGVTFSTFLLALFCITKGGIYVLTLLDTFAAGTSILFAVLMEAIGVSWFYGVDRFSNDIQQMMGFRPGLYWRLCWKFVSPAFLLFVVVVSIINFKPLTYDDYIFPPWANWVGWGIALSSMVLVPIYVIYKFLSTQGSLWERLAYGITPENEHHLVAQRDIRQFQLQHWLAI
observedProperty: AC50

compound="CCC(=O)O[C@]1(C(=O)COC(C)=O)CC[C@H]2[C@@H]3CCC4=CC(=O)CC[C@]4(C)[C@H]3[C@@H](O)C[C@@]21C [HYDROCORTISONE ACEPONATE]" assayedsystem="Sodium-dependent noradrenaline transporter (Homo sapiens, UniProt P23975)" result="> 30 µM"
compound="CN(C)c1cc(CNCC(C)(C)C)c(O)c2c1C[C@H]1C[C@H]3[C@H](N(C)C)C(O)=C(C(N)=O)C(=O)[C@@]3(O)C(O)=C1C2=O [OMADACYCLINE]" assayedsystem="Sodium-dependent noradrenaline transporter (Homo sapiens, UniProt P23975)" result="> 30 µM"
compound="CCCCC/C=C\\C/C=C\\C/C=C\\CCCCC(=O)O [GAMOLENIC ACID]" assayedsystem="Sodium-dependent noradrenaline transporter (Homo sapiens, UniProt P23975)" result="> 30 µM"
compound="C#C[C@]1(O)CC[C@H]2[C@@H]3CCC4=C(CCC(=O)C4)[C@H]3CC[C@@]21C [NORETHYNODREL]" assayedsystem="Sodium-dependent noradrenaline transporter (Homo sapiens, UniProt P23975)" result="> 30 µM"
compound="CN(C)CCC(c1ccccc1)c1ccccn1 (centres undefined) [PHENIRAMINE]" assayedsystem="Sodium-dependent noradrenaline transporter (Homo sapiens, UniProt P23975)" result="26.3 µM"
compound="CC(C)COc1ccc(CNC(=O)N(Cc2ccc(F)cc2)C2CCN(C)CC2)cc1 [PIMAVANSERIN]" assayedsystem="Sodium-dependent noradrenaline transporter (Homo sapiens, UniProt P23975)" result="6.92 µM"
compound="Nc1nc(N)nc(Nc2ccc([As]3SCC(CO)S3)cc2)n1 (centres undefined) [MELARSOPROL]" assayedsystem="Sodium-dependent noradrenaline transporter (Homo sapiens, UniProt P23975)" result="> 30 µM"
compound="CCC(=O)O[C@@H](O[P@](=O)(CCCCc1ccccc1)CC(=O)N1C[C@H](C2CCCCC2)C[C@H]1C(=O)O)C(C)C [FOSINOPRIL]" assayedsystem="Sodium-dependent noradrenaline transporter (Homo sapiens, UniProt P23975)" result="> 30 µM"
compound=CCCCCCCC(=O)N[C@H](CN1CCCC1)[C@H](O)c1ccc2c(c1)OCCO2 assayedsystem="Sodium-dependent noradrenaline transporter (Homo sapiens, UniProt P23975)" result="> 30 µM"
compound="CC[N+](C)(CC)CCOC(=O)C1c2ccccc2Oc2ccccc21 [METHANTHELINE]" assayedsystem="Sodium-dependent noradrenaline transporter (Homo sapiens, UniProt P23975)" result="> 30 µM"
compound="COc1cc([C@@H]2c3cc4c(cc3[C@@H](O[C@@H]3O[C@@H]5CO[C@@H](c6cccs6)O[C@H]5[C@H](O)[C@H]3O)[C@H]3COC(=O)[C@H]23)OCO4)cc(OC)c1O [TENIPOSIDE]" assayedsystem="Sodium-dependent noradrenaline transporter (Homo sapiens, UniProt P23975)" result="> 30 µM"
compound="Oc1c(I)cc(Cl)c2cccnc12 [CLIOQUINOL]" assayedsystem="Sodium-dependent noradrenaline transporter (Homo sapiens, UniProt P23975)" result="2.79 µM"
compound="CNC(=O)c1cc(Oc2ccc(NC(=O)Nc3ccc(Cl)c(C(F)(F)F)c3)c(F)c2)ccn1 [REGORAFENIB]" assayedsystem="Sodium-dependent noradrenaline transporter (Homo sapiens, UniProt P23975)" result="20 µM"
compound="C[C@]12CCC(=O)C=C1CC[C@@H]1[C@@H]2[C@@H](O)C[C@@]2(C)[C@H]1CC[C@]2(O)C(=O)COC(=O)CCC(=O)O [HYDROCORTISONE HEMISUCCINATE ANHYDROUS]" assayedsystem="Sodium-dependent noradrenaline transporter (Homo sapiens, UniProt P23975)" result="> 30 µM"
compound="CN1CCN(CCCN2c3ccccc3Sc3ccc(S(=O)(=O)N(C)C)cc32)CC1 [THIOPROPERAZINE]" assayedsystem="Sodium-dependent noradrenaline transporter (Homo sapiens, UniProt P23975)" result="16.8 µM"
compound="c1ccc2c(CC3=NCCN3)cccc2c1 [NAPHAZOLINE]" assayedsystem="Sodium-dependent noradrenaline transporter (Homo sapiens, UniProt P23975)" result="> 30 µM"
compound="CN(C)C(=O)Oc1cccc([N+](C)(C)C)c1 [NEOSTIGMINE]" assayedsystem="Sodium-dependent noradrenaline transporter (Homo sapiens, UniProt P23975)" result="> 30 µM"
compound=CN(C)CCCN1C(=O)c2cc([N+](=O)[O-])ccc2Oc2ccccc21 assayedsystem="Sodium-dependent noradrenaline transporter (Homo sapiens, UniProt P23975)" result="> 30 µM"
compound="O=C(Nc1nc(-c2cc(Cl)cs2)c(N2CCN(C3CCCCC3)CC2)s1)c1cnc(N2CCC(C(=O)O)CC2)c(Cl)c1 [AVATROMBOPAG]" assayedsystem="Sodium-dependent noradrenaline transporter (Homo sapiens, UniProt P23975)" result="> 30 µM"
compound="CCOc1ccc2ccccc2c1C(=O)N[C@@H]1C(=O)N2[C@@H]1SC(C)(C)[C@@H]2C(=O)O [NAFCILLIN]" assayedsystem="Sodium-dependent noradrenaline transporter (Homo sapiens, UniProt P23975)" result="> 30 µM"
compound="c1ccc2[nH]c(-c3cscn3)nc2c1 [THIABENDAZOLE]" assayedsystem="Sodium-dependent noradrenaline transporter (Homo sapiens, UniProt P23975)" result="> 30 µM"
compound="Cn1c(=O)c2[nH]cnc2n(C)c1=O [THEOPHYLLINE]" assayedsystem="Sodium-dependent noradrenaline transporter (Homo sapiens, UniProt P23975)" result="> 30 µM"
compound="CNC(=O)Oc1ccc2c(c1)[C@]1(C)CCN(C)[C@@H]1N2C [PHYSOSTIGMINE]" assayedsystem="Sodium-dependent noradrenaline transporter (Homo sapiens, UniProt P23975)" result="> 30 µM"
compound="Cn1c(=O)c2c(ncn2CC(O)CO)n(C)c1=O (centres undefined) [DYPHYLLINE]" assayedsystem="Sodium-dependent noradrenaline transporter (Homo sapiens, UniProt P23975)" result="> 30 µM"

Values from ChEMBL document CHEMBL5291721
